- Tested on: 422866-222-R5-J1-PDC complex spheroids viability
- ASSAY_NOTES: Anticancer human tumor 422866-222-R5-J1-PDC patient-derived pancreatic adenocarcinoma cell line growth inhibition [RAS]
- PROTOCOL_CONDITIONS: second compound 0.3 µM; first compound 0.0316 µM; active compounds read low
ENDPOINT_LABEL: viability, T/C (%)
Value expressed in %; do not type the unit.

- COMPOUND: "CC(C)NCC(C(=O)N1CCN(c2ncnc3c2C(C)CC3O)CC1)c1ccc(Cl)cc1 (configuration not stated) + CCn1c(-c2cccnc2C(C)OC)c2c3cc(ccc31)N1CCOC(CC(NC(=O)C(C(C)C)N(C)C(=O)C3(F)CCN(C(=O)C#CC(C)(C)N(C)C)CC3)C(=O)N3CCCC(N3)C(=O)OCC(C)(C)C2)C1"
  viability, T/C / %: 13.8

Let's switch to this compound now.
Request: // Input: CC1(O)CCCC1n1c(=O)c(C(F)F)cc2cnc(NC3CCN(S(C)(=O)=O)CC3)nc21 (configuration not stated) + CCn1c(-c2cccnc2C(C)OC)c2c3cc(ccc31)N1CCOC(CC(NC(=O)C(C(C)C)N(C)C(=O)C3(F)CCN(C(=O)C#CC(C)(C)N(C)C)CC3)C(=O)N3CCCC(N3)C(=O)OCC(C)(C)C2)C1 . Output its viability, T/C only.
Result: 15.5

---

- Tested on: 422866-222-R5-J1-PDC complex spheroids viability
- ASSAY_NOTES: Anticancer human tumor 422866-222-R5-J1-PDC cell line growth inhibition [RAS];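 also: spheroids exposed to compounds for 7 days; 100% = DMSO vehicle control viability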
- PROTOCOL_CONDITIONS: second compound 0.1 µM; first compound 1 µM; active compounds read low
Note to self: viability, T/C under 20% means Yes, ties and anything higher get No.

Completed entries (count: 4):
- COMPOUND: "O=C(c1ccc(F)c(F)c1Nc1ccc(I)cc1F)N1CC(O)([C@@H]2CCCCN2)C1 + C=CC(=O)N1CCN(c2nc(OCC3CCCN3C)nc3c(F)c(-c4nc(N)cc(C)c4C(F)(F)F)c(Cl)cc23)C(C)C1"
  LABEL_VALUE: "Yes"
- COMPOUND: "C=CC(=O)N1CCN(c2nc(OCC3CCCN3C)nc3c(F)c(-c4nc(N)cc(C)c4C(F)(F)F)c(Cl)cc23)C(C)C1 (stereo not given) + C#Cc1c(F)ccc2cc(O)cc(-c3ncc4c(N5CC6CCC(C5)N6)nc(OCC56CCCN5CC(F)C6)nc4c3F)c12"
  LABEL_VALUE: "No"
- COMPOUND: "Cc1nc(N2CCC3(CC2)COC(C)C3N)c(CO)nc1Sc1ccnc(N)c1Cl (stereo not given) + C=CC(=O)N1CCN(c2nc(OCC3CCCN3C)nc3c(F)c(-c4nc(N)cc(C)c4C(F)(F)F)c(Cl)cc23)C(C)C1"
  LABEL_VALUE: "Yes"
- COMPOUND: "Nc1ccn(C2OC(CO)C(O)C2(F)F)c(=O)n1 (stereo not given) + C#Cc1c(F)ccc2cc(O)cc(-c3ncc4c(N5CC6CCC(C5)N6)nc(OCC56CCCN5CC(F)C6)nc4c3F)c12"
  LABEL_VALUE: "No"

Attention now shifts to the item below.
Request: Item CC(C)NCC(C(=O)N1CCN(c2ncnc3c2C(C)CC3O)CC1)c1ccc(Cl)cc1 (stereo not given) + C=CC(=O)N1CCN(c2nc(OCC3CCCN3C)nc3c(F)c(-c4nc(N)cc(C)c4C(F)(F)F)c(Cl)cc23)C(C)C1 : viability, T/C beneath 20%, strictly?
Result: Yes
